tested on: WT HIV-1 strain (IIIB); experiment: Anti-HIV-1 (IIIB, wild-type) activity in MT-4 cells, MTT method; type: cell-based; details: Human immunodeficiency virus 1, IIIB, MT4, read-out: EC50 IIIB, MT-4 cells, WT HIV-1 IIIB, MTT
pEC50: −log10 of the molar value.

compound	pEC50
Cc1cc(COc2cccc(C#N)c2)cc(C)c1Oc1ccnc(Nc2ccc(C#N)cc2)n1 [TF3]	7.61
Cc1cc(COc2ccccc2CO)cc(C)c1Oc1ccnc(Nc2ccc(C#N)cc2)n1 [TF10]	7.49
Cc1cc(COc2ccccc2)cc(C)c1Oc1ccnc(Nc2ccc(C#N)cc2)n1 [TF1]	7.77
Cc1cc(COc2ccc(NC(=O)OC(C)(C)C)cc2)cc(C)c1Oc1ccnc(Nc2ccc(C#N)cc2)n1 [TF16]	7.34
Cc1cc(COc2ccc(CO)cc2)cc(C)c1Oc1ccnc(Nc2ccc(C#N)cc2)n1 [TF8]	7.37
COc1ccccc1OCc1cc(C)c(Oc2ccnc(Nc3ccc(C#N)cc3)n2)c(C)c1 [TF7]	7.59
Cc1cc(C#N)cc(C)c1Oc1nc(Nc2ccc(C#N)cc2)nc(N)c1Br [ETR, etravirine, reference compound]	8.52
Cc1cc(COc2cccnc2)cc(C)c1Oc1ccnc(Nc2ccc(C#N)cc2)n1 [TF11]	6.70

====

molecular target: HIV-1 WT RT (Human immunodeficiency virus type 1 group M subtype B, UniProt P04585); construct: The RT is a heterodimer consisting of two subunits, p66 (560 residues) and p51 (440 residues); purchased Roche; assay: HIV-1 RT inhibition assay (Roche kit, ELISA); assay type: biochemical
readout name: IC50 (nM)

Cc1cc(COc2cccc(C#N)c2)cc(C)c1Oc1ccnc(Nc2ccc(C#N)cc2)n1 60
COc1ccc(OCc2cc(C)c(Oc3ccnc(Nc4ccc(C#N)cc4)n3)c(C)c2)cc1 54
Cc1cc(COc2ccc(N)cc2)cc(C)c1Oc1ccnc(Nc2ccc(C#N)cc2)n1 57
Cc1cc(COc2ccc([N+](=O)[O-])cc2)cc(C)c1Oc1ccnc(Nc2ccc(C#N)cc2)n1 63
Cc1cc(COc2cccnc2)cc(C)c1Oc1ccnc(Nc2ccc(C#N)cc2)n1 483
COc1ccccc1OCc1cc(C)c(Oc2ccnc(Nc3ccc(C#N)cc3)n2)c(C)c1 73
Cc1cc(COc2ccc(C#N)cc2)cc(C)c1Oc1ccnc(Nc2ccc(C#N)cc2)n1 55
Cc1cc(COc2cncc(C#N)c2)cc(C)c1Oc1ccnc(Nc2ccc(C#N)cc2)n1 59
Cc1cc(COc2ccc(F)nc2)cc(C)c1Oc1ccnc(Nc2ccc(C#N)cc2)n1 41

====

test system: WT HIV-1 strain (IIIB); assay: Anti-HIV-1 (IIIB, wild-type) activity in MT-4 cells, MTT method; assay type: cell-based; settings: selectivity index, CC50/EC50 (IIIB)
Measured SI (IIIB), listed per entry for reference.

compound	SI (IIIB)
Cc1cn([C@H]2C[C@H](N=[N+]=[N-])[C@@H](CO)O2)c(=O)[nH]c1=O [AZT, Zidovudine, reference compound]	>274.0
Cc1cc(COc2ccccc2)cc(C)c1Oc1ccnc(Nc2ccc(C#N)cc2)n1 [TF1]	>17,326.7
Cc1cc(C#N)cc(C)c1Oc1nc(Nc2ccc(C#N)cc2)nc(N)c1Br [ETR, etravirine, reference compound]	>1578.9

====

Assay: in vitro
Conditions: human
Method: Stock solutions (10 × final concentration) of test compounds were added in 25 μL volumes to two series of triplicate wells to allow simultaneous evaluation of their effects on mock- and HIV-infected cells at the beginning of each experiment.
readout name: CC50 at 5 days

molecule	readout name	experimental value
COc1cccc(OCc2cc(C)c(Oc3ccnc(Nc4ccc(C#N)cc4)n3)c(C)c2)c1	CC50 at 5 days	6.9 µM
Cc1cc(C#N)cc(C)c1Oc1nc(Nc2ccc(C#N)cc2)nc(N)c1Br [ETR, etravirine, reference compound]	CC50 at 5 days	> 4.59 µM
O=C1Nc2ccc(Cl)cc2[C@@](C#CC2CC2)(C(F)(F)F)O1 [EFV, efavirenz, reference compound]	CC50 at 5 days	> 6.34 µM
